Biological target: AgHse1
Test: SPOT peptide array binding signal intensity (averaged, normalized) (arbitrary units (background-subtracted, floor 0; scale differs between SH3 domains)); higher = stronger binding of the SH3 domain to the peptide
Mark true for reported SPOT peptide array binding signal intensity of 200 or greater; mark false for anything smaller.

VPPPMQPPPIESSNL :: false
LTRRFPFLFPFDTRM :: true
APPLPPTAPPPPSLP :: false
RFKRHRLEFPFNESE :: true
ATKSASPTLPTRRSR :: false

Request: Dear colleague, could you confirm whether LSKRLPLRFPEHTSS has SPOT peptide array binding signal intensity at or above 200?
Response: true

Request: // inclusive: SPOT peptide array binding signal intensity at least 200? input: NQARKPFLLPATELS
Response: true

Request: Hello, I need to know if AERNYAPRLPRRETS has measured SPOT peptide array binding signal intensity not below 200. Thanks!
Response: false

Request: Item GKLKHIPRRPYEIER with SPOT peptide array binding signal intensity of 200 or above?
Response: false

Request: Confirm if SPOT peptide array binding signal intensity reported for the binder PSRRAPLQLPQLVNK is 200 or above.
Response: false

Request: Entry PVLPPPRSPNRPTLS : is its SPOT peptide array binding signal intensity no less than 200?
Response: false

Request: For this binder, is measured SPOT peptide array binding signal intensity 200 or higher? QLLNPNRRAPRRPLS
Response: false

Request: Does the binder VQQDSLPKLPFRSWG have recorded SPOT peptide array binding signal intensity that is 200 or more?
Response: false

Request: Could you please find out whether SSSSSPPPLPTRRDH has SPOT peptide array binding signal intensity that meets 200 or exceeds it?
Response: false
